System: Hepatotoxicity
Assay: FDA HLAED, serum glutamic oxaloacetic transaminase (SGOT) increase
Conditions: human
True if SGOT Increase - Index Value is below 3. False if not; exact matches included in False.

Take a look at these entries with their results.
| COMPOUND | ASSIGNED CLASS |
| --- | --- |
| CC[C@H]1OC(=O)[C@H](C)[C@@H](O[C@H]2C[C@@](C)(OC)[C@@H](O)[C@H](C)O2)[C@H](C)[C@@H](O[C@@H]2O[C@H](C)C[C@H](N(C)C)[C@H]2O)[C@](C)(O)C[C@@H](C)C(=O)[C@H](C)[C@@H](O)[C@]1(C)O | False |
| N=C(N)N/N=C/c1c(Cl)cccc1Cl | True |
| CN(C)CCCN1c2ccccc2CCc2ccc(Cl)cc21 | True |
| CN1CCC[C@H]1c1cccnc1 | True |
| COc1ccc(C(CN(C)C)C2(O)CCCCC2)cc1 (configuration not stated) | True |

// next entry
Threshold test, SGOT Increase - Index Value < 3: O=c1[nH]c2ccccc2n1C1CCN(CCCC(c2ccc(F)cc2)c2ccc(F)cc2)CC1 [PIMOZIDE]
True

###

Test system: Hepatotoxicity
Experiment: FDA HLAED, alkaline phosphatase increase
Conditions: human
OBSERVATION TYPE: Alkaline Phosphatase Increase - Number of Reports

Check out these entries, answers already filled in.
| COMPOUND | RESULT VALUE |
| --- | --- |
| CCN(CC)CCNC(=O)c1ccc(N)cc1 [PROCAINAMIDE] | < 4 |
| Nc1nc2c(ncn2CCC(CO)CO)c(=O)[nH]1 [PENCICLOVIR] | < 4 |
| CO[C@@]1(NC(=O)Cc2cccs2)C(=O)N2C(C(=O)O)=C(COC(N)=O)CS[C@@H]21 [CEFOXITIN] | < 4 |
| Cc1cc2c(s1)Nc1ccccc1N=C2N1CCN(C)CC1 [OLANZAPINE] | >= 4 |
| NC(=O)c1ncn([C@@H]2O[C@H](CO)[C@@H](O)[C@H]2O)n1 [RIBAVIRIN] | < 4 |
| C[C@@]12CCCCC[C@@H](Cc3ccc(O)cc31)[C@@H]2N [DEZOCINE] | < 4 |
| CC1(C)S[C@@H]2[C@H](NC(=O)C3(N)CCCCC3)C(=O)N2[C@H]1C(=O)O [CYCLACILLIN] | < 4 |
| O=c1[nH]cnc2c1ncn2[C@H]1CC[C@@H](CO)O1 [DIDANOSINE] | >= 4 |

Can you share its Alkaline Phosphatase Increase - Number of Reports? I mean this compound: CCCCc1nc(Cl)c(CO)n1Cc1ccc(-c2ccccc2-c2nn[nH]n2)cc1 [LOSARTAN]
< 4

###

System: Hepatotoxicity
Assay: FDA HLAED, gamma-glutamyl transferase (GGT) increase
Details: human
OBSERVATION TYPE: GGT Increase - Index Value
Just the number, please.

A selection of reference data follows.
| MOLECULE | TGT | RESULT VALUE |
| --- | --- | --- |
| CCC(=O)[C@@]1(C)[C@H](C)C[C@H]2[C@@H]3CCC4=CC(=O)C=C[C@]4(C)[C@H]3[C@@H](O)C[C@@]21C [RIMEXOLONE] | Hepatotoxicity | 0 |
| CCN(CC)CCOc1ccc(/C(=C(/Cl)c2ccccc2)c2ccccc2)cc1 | Hepatotoxicity | 15.6 |
| CC(=O)N(CC(O)CN(C(C)=O)c1c(I)c(C(=O)NCC(O)CO)c(I)c(C(=O)NCC(O)CO)c1I)c1c(I)c(C(=O)NCC(O)CO)c(I)c(C(=O)NCC(O)CO)c1I (stereo not drawn) | Hepatotoxicity | 0 |
| CCCCC(=O)N(Cc1ccc(-c2ccccc2-c2nnn[nH]2)cc1)[C@H](C(=O)O)C(C)C | Hepatotoxicity | 2.5 |
| CC(=O)N(CC(O)CO)c1c(I)c(C(=O)NCC(O)CO)c(I)c(C(=O)NCC(O)CO)c1I (stereo not drawn) [IOHEXOL] | Hepatotoxicity | 0 |

# get_value(readout='GGT Increase - Index Value', item= "CC(C)OC(=O)CCC/C=C\C[C@@H]1[C@@H](CC[C@@H](O)CCc2ccccc2)[C@H](O)C[C@@H]1O" )
0

Also "COCCCC/C(=N\OCCN)c1ccc(C(F)(F)F)cc1" ?
1.4

What do you have for "Clc1ccc2c(c1)C(N1CCNCC1)=Nc1ccccc1O2" ?
0

// data source = ChEMBL document CHEMBL1697781
